system: NCI-H322M; assay: relative viability (nuclei count vs DMSO), 5 days (fraction); higher = more cells survive; conditions: first compound 6.325 µM
measured-attribute: relative viability

1. Cc1csc(=NC2CCCCC2)n1/N=C/c1ccc(O)c(O)c1O [MIM1] + CS(=O)(=O)N1CCN(Cc2cc3nc(-c4cccc5[nH]ncc45)nc(N4CCOCC4)c3s2)CC1 [Pictilisib] (partner 1 µM): 0.477
2. Cc1csc(=NC2CCCCC2)n1/N=C/c1ccc(O)c(O)c1O [MIM1] + Nc1ncn([C@H]2C[C@H](O)[C@@H](CO)O2)c(=O)n1 [Decitabine] (partner 2 µM): 0.642
3. Cc1csc(=NC2CCCCC2)n1/N=C/c1ccc(O)c(O)c1O [MIM1] + CS(=O)(=O)CCNCc1ccc(-c2ccc3ncnc(Nc4ccc(OCc5cccc(F)c5)c(Cl)c4)c3c2)o1 [Lapatinib] (partner 2 µM): 0.577
4. Cc1csc(=NC2CCCCC2)n1/N=C/c1ccc(O)c(O)c1O [MIM1] + Cc1nc(NC(=O)N2CCC[C@H]2C(N)=O)sc1-c1ccnc(C(C)(C)C(F)(F)F)c1 [Alpelisib] (partner 2 µM): 0.74

###

tested on: PC-14; assay: relative viability (nuclei count vs DMSO), 5 days (fraction); higher = more cells survive; conditions: first compound 0.253 µM
measured-attribute: relative viability

1. Nc1cccc2c1CN(C1CCC(=O)NC1=O)C2=O (stereo not drawn) [Lenalidomide] + Nc1ncn([C@H]2C[C@H](O)[C@@H](CO)O2)c(=O)n1 [Decitabine] (partner 2 µM): 0.199
2. Nc1cccc2c1CN(C1CCC(=O)NC1=O)C2=O (stereo not drawn) [Lenalidomide] + CC(=O)Nc1cccc(-n2c(=O)n(C3CC3)c(=O)c3c(Nc4ccc(I)cc4F)n(C)c(=O)c(C)c32)c1 [Trametinib] (partner 0.02 µM): 0.839
3. Nc1cccc2c1CN(C1CCC(=O)NC1=O)C2=O (stereo not drawn) [Lenalidomide] + CC(C)C[C@H](NC(=O)[C@H](Cc1ccccc1)NC(=O)c1cnccn1)B(O)O [Bortezomib] (partner 0.002 µM): 0.779

###

Recorded relative viability, one value per entry.
system: HCC-78; test: relative viability (nuclei count vs DMSO), 5 days (fraction); higher = more cells survive; details: first compound 0.02 µM
measured-attribute: relative viability

1. CN1CCN(CCOc2cc(OC3CCOCC3)c3c(Nc4c(Cl)ccc5c4OCO5)ncnc3c2)CC1 [Saracatinib] + CC(=O)c1c(C)c2cnc(Nc3ccc(N4CCNCC4)cn3)nc2n(C2CCCC2)c1=O [Palbociclib] (partner 0.5 µM): 0.461
2. CN1CCN(CCOc2cc(OC3CCOCC3)c3c(Nc4c(Cl)ccc5c4OCO5)ncnc3c2)CC1 [Saracatinib] + N=C(N)NC(=N)NCCc1ccccc1 [Phenformin] (partner 250 µM): 0.704
3. CCNC(=O)c1noc(-c2cc(C(C)C)c(O)cc2O)c1-c1ccc(CN2CCOCC2)cc1 [Luminespib] + CC(=O)Nc1cccc(-n2c(=O)n(C3CC3)c(=O)c3c(Nc4ccc(I)cc4F)n(C)c(=O)c(C)c32)c1 [Trametinib] (partner 0.02 µM): 0.572
4. CCNC(=O)c1noc(-c2cc(C(C)C)c(O)cc2O)c1-c1ccc(CN2CCOCC2)cc1 [Luminespib] + CC(=O)c1c(C)c2cnc(Nc3ccc(N4CCNCC4)cn3)nc2n(C2CCCC2)c1=O [Palbociclib] (partner 0.5 µM): 0.467
